Kd values by entry
Target: T1, Human VSIG4-L-His (human, UniProt Q9Y279 20-283)
T1 construct: long isoform ECD with His tag; also called hVSIG4-L
T1 sequence: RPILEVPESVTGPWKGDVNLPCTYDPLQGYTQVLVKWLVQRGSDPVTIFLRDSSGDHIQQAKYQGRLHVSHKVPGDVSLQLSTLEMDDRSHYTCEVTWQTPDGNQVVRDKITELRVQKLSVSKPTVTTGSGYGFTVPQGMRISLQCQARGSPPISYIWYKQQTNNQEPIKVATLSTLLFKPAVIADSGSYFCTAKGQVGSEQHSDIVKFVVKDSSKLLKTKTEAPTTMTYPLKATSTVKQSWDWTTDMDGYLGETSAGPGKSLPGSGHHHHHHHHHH
Test: BLI (Octet), mouse IgG on AMC sensor, antigen 100 nM;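 further: octet Red384 biolayer interferometry with immobilized mouse hybridoma antibodies, 300 s association then 300 s dissociation at 30 °C, isotype-control reference subtraction, 1:1 global fit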
Observed property: Kd

Binder: 9A10.C4 murine hybridoma antibody (antibody, V domains shown, murine IgG purified from hybridoma supernatant) VH: EVQLVESGGALVQPGGSLKLSCVASGFSFSNCVMSWVRQSPEKRLEWVATIGSDGSYSYYQDNVKGRFTVSRDNAKNTLYLQMSSLGSEDTALYYCGRHIYGYDVVDYWGQGTSLTVSS VL: DIVMTQSHKFMSTSVGDRVTITCKASQDVSNVVAWFQQKPGQSPKLLIYSASYRFGGVPDRFTGSGSGTDFTFTISSVQAEDLAVYYCQQHYDTPLTFGTGTTLELK
Measured result: 0.965 nM
//
Binder: 16F6.E1 murine hybridoma antibody (antibody, V domains shown, murine IgG purified from hybridoma supernatant; also called 16F6.H6) VH: QVQLQQPGAEMVRPGASLKLSCKASGYTFTSYWMHWVKQRPGQGLEWIGKIDPSKNTTHYNQNFRDKATLTVDRSSSTAYMQLNSLTSEDSAVYFCVTWDGDFTYWGQGTLVTISA VL: NIVLTQSPPSLAVSLGQRATISCRASESVDSYGNSFMHWYQQKPGQPPKLLIYLASNLESGVPARFSGSGSRTDFTLTIDPVEADDAATYFCHQNNEDPWTFGGGTKLEIK
Measured result: 0.472 nM
